# EXPERIMENTAL_SYSTEM: Beta-secretase 1 (Homo sapiens, UniProt P56817)
# Sequence (P56817 whole entry): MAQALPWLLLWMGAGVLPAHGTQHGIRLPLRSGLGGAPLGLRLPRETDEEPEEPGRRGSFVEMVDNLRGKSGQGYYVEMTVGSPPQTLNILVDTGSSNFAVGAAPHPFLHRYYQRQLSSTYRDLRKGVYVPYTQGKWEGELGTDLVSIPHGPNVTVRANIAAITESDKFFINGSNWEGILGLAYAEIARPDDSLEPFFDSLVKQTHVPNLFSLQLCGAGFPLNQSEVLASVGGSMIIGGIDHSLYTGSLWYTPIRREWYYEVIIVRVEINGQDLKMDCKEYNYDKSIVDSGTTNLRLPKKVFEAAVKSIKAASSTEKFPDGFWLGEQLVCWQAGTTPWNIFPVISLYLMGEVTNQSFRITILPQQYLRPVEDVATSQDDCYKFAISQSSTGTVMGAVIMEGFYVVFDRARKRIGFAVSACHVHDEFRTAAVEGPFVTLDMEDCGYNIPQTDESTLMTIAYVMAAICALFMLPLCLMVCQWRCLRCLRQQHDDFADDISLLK
# EXPERIMENT_SUMMARY: Inhibition of recombinant beta-secretase 1
pKi: −log10 of the molar value.
ENDPOINT_LABEL: pKi

Some entries whose results are on file:
| COMPOUND | EXPERIMENTAL_SYSTEM | pKi |
| --- | --- | --- |
| Cc1nc(CN(C(=O)CC[C@@H](C2CCCCC2)N2Cc3cc(Oc4ccccc4)ccc3N=C2N)C2CCCCC2)cs1 | Beta-secretase 1 (Homo sapiens, UniProt P56817) | 7.10 |
| Cc1nc(CN(C(=O)OC[C@@H](C2CCCCC2)N2Cc3cc(Oc4ccccc4)ccc3N=C2N)C2CCCCC2)cs1 | Beta-secretase 1 (Homo sapiens, UniProt P56817) | 5.83 |
| CN(C(=O)CC[C@@H]([C@H]1CCCOC1)N1Cc2cc(Oc3ccccc3)ccc2N=C1N)C1CCCCC1 | Beta-secretase 1 (Homo sapiens, UniProt P56817) | 6.91 |
| CN(C(=O)OC[C@@H](C1CCCCC1)N1Cc2cc(Oc3ccccc3)ccc2N=C1N)C1CCCCC1 | Beta-secretase 1 (Homo sapiens, UniProt P56817) | 7.43 |
| CN(C(=O)CC[C@@H](c1ccccc1)N1Cc2cc(Oc3ccccc3)ccc2N=C1N)C1CCCCC1 | Beta-secretase 1 (Homo sapiens, UniProt P56817) | 6.79 |
| CC(C)c1nc(CN(C(=O)CC[C@@H](C2CCCCC2)N2Cc3cc(Oc4ccccc4)ccc3N=C2N)C2CCCCC2)cs1 | Beta-secretase 1 (Homo sapiens, UniProt P56817) | 6.84 |
| CN(C(=O)OC[C@@H](C1CCCOC1)N1Cc2cc(Oc3ccccc3)ccc2N=C1N)C1CCCCC1 (mixture of isomers) | Beta-secretase 1 (Homo sapiens, UniProt P56817) | 6.98 |
| COCc1nc(CN(C(=O)CC[C@@H](C2CCCCC2)N2Cc3cc(Oc4ccccc4)ccc3N=C2N)C2CCCCC2)cs1 | Beta-secretase 1 (Homo sapiens, UniProt P56817) | 7.89 |

(1) Cc1nc(C(C)N(C(=O)CC[C@@H](C2CCCCC2)N2Cc3cc(Oc4ccccc4)ccc3N=C2N)C2CCCCC2)cs1 (stereo not given in full)
(2) CN(C(=O)OC[C@@H](c1ccccc1)N1Cc2cc(Oc3ccccc3)ccc2N=C1N)C1CCCCC1
(3) NC1=Nc2ccc(Oc3ccccc3)cc2CN1[C@@H](CCC(=O)N(Cc1cn[nH]c1)C1CCCCC1)C1CCCCC1
(4) Cn1cc(CN(C(=O)CC[C@@H](C2CCCCC2)N2Cc3cc(Oc4ccccc4)ccc3N=C2N)C2CCCCC2)cn1
(5) NC1=Nc2ccc(Oc3ccccc3)cc2CN1[C@@H](COC(=O)NC1CCCCC1)C1CCCCC1
List items by pKi in falling order. Labels, ranked as asked.
4, 3, 5, 1, 2

(P) Cc1nc(CCN(C(=O)CC[C@@H](C2CCCCC2)N2Cc3cc(Oc4ccccc4)ccc3N=C2N)C2CCCCC2)cs1
(Q) Cc1[nH]ncc1CN(C(=O)CC[C@@H](C1CCCCC1)N1Cc2cc(Oc3ccccc3)ccc2N=C1N)C1CCCCC1
Would you let me know which has the greater pKi value, P or Q ? Could you answer with the label of the item you picked?
Q
(Q: 7.41, P: 6.97)
